STUDY_SYSTEM: T1, full-length beta-Catenin (Uniprot ID P35222) (Homo sapiens (Human), UniProt P35222 2-781)
T1 construct: The AlphaScreen assay used a Histidine (Nickel Chelate) detection kit, so a His tag is likely, but no tag is described; also called B-Catenin; bCat
T1 sequence: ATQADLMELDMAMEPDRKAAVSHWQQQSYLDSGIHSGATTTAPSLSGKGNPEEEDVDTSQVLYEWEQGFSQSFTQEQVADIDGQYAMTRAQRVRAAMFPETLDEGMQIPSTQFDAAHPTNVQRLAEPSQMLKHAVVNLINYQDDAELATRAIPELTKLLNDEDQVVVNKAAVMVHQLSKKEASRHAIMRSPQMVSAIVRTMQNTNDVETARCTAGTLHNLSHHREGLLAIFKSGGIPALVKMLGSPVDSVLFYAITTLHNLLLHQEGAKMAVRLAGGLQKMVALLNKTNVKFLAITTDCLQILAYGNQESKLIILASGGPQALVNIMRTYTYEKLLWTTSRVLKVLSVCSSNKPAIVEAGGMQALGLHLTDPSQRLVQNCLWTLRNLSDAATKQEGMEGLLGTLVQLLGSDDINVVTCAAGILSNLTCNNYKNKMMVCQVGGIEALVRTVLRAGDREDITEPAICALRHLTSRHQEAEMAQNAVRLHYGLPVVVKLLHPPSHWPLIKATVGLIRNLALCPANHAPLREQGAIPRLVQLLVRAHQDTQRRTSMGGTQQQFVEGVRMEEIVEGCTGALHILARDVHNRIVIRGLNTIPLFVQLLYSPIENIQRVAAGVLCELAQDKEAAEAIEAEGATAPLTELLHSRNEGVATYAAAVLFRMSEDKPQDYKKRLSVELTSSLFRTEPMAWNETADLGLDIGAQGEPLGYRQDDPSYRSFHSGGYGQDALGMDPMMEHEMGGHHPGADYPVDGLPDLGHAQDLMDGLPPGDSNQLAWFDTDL
EXPERIMENTAL_DETAILS: AlphaScreen competition: full-length beta-catenin + biotin-TCF4(10-53) probe, peptide titrated
Starred links: 1 amine or outer side, 2 acyl side, 3 side chain; linkers in the order of their positions; H or OH if unused. Positions of bridges follow the written chain, without caps; N, C: chain ends. Non-standard residues stand in square brackets, D forms with d. Primed or numbered codes have the meaning given here. B5(4) = 2,2-bis(4-pentenyl)glycine = 2-amino-2-(pent-4-en-1-yl)hept-6-enoic acid (stitching residue), C=CCCCC(CCCC=C)(N[*:1])C(=O)[*:2]; B5(5) = 2,2-bis(4-pentenyl)glycine, 2-amino-2-(pent-4-en-1-yl)hept-6-enoic acid (stitching residue), C=CCCCC(CCCC=C)(N[*:1])C(=O)[*:2]; PyrS″ = (S)-1-((allyloxy)carbonyl)-3-aminopyrrolidine-3-carboxylic acid (stapling residue), C=CCOC(=O)N1CC[C@@](N[*:1])(C(=O)[*:2])C1; PyrS = (S)-1-((allyloxy)carbonyl)-3-aminopyrrolidine-3-carboxylic acid, C=CCOC(=O)N1CC[C@@](N[*:1])(C(=O)[*:2])C1; B5(3) = 2,2-bis(4-pentenyl)glycine (stitching residue), C=CCCCC(CCCC=C)(N[*:1])C(=O)[*:2]; Phe(3-CF3) = N[C@@H](Cc1cccc(C(F)(F)F)c1)C(=O)O; Phe(F5) = N[C@@H](Cc1c(F)c(F)c(F)c(F)c1F)C(=O)O; Bip = N[C@@H](Cc1ccc(-c2ccccc2)cc1)C(=O)O; 2Nal = N[C@@H](Cc1ccc2ccccc2c1)C(=O)O; Bta = N[C@@H](Cc1csc2ccccc12)C(=O)O; αAllylPro = C=CC[C@@]1(C(=O)O)CCCN1; 2Pal = N[C@@H](Cc1ccccn1)C(=O)O; R8 = C=CCCCCCC[C@@](C)(N)C(=O)O; S8 = C=CCCCCCC[C@](C)(N)C(=O)O
MEASUREMENT_LABEL: log10 of EC50 (log10 of the value in µM)
Each number you see is log10 of EC50, and the unit inside the log is µM.

BINDER	MEASUREMENT_LABEL	RESULT_VALUE
Ac-FDA[R8]DDAAFT[PyrS″]FWQ-NH2 (staple 4-11, Stapled peptide composition; also called Ac-Phe-Asp-Ala-R8-Asp-Asp-Ala-Ala-Phe-Thr-PyrS-Phe-Trp-Gln-NH2) [I-223]	log10 of EC50	0.61
XDAXDDAAFVXFWQ (not fully specified; N-terminal Ac; C-terminal NH2; PL3 at 1, B5 at 4, S8 at 11 (staples 1-4 and 4-11 by olefin metathesis); 4F3MeF at 12, Stapled peptide composition; also called Ac-PL3-Asp-Ala-B5-Asp-Asp-Ala-Ala-Phe-Val-S8-4F3MeF-Trp-Gln-NH2) [I-254]	log10 of EC50	0.29
Ac-[αAllylPro]DA[B5(3)]D[Bip]AAFV[S8]FWQ-NH2 (staple 1-4, 4-11, Stapled peptide composition; also called Ac-PL3-Asp-Ala-B5-Asp-Bip-Ala-Ala-Phe-Val-S8-Phe-Trp-Gln-NH2) [I-235]	log10 of EC50	0.87
Ac-[αAllylPro]DA[B5(4)]DEAAXV[S8]FWQ-NH2 (staple 1-4, 4-11; not fully specified (residue 9); printed as Ac-PL3-Asp-Ala-B5-Asp-Glu-Ala-Ala-MeTyr-Val-S8-Phe-Trp-Gln-NH2, Stapled peptide composition; also called Ac-PL3-Asp-Ala-B5-Asp-Glu-Ala-Ala-MeTyr-Val-S8-Phe-Trp-Gln-NH2) [I-217]	log10 of EC50	-1.05
Ac-[αAllylPro]DA[B5(5)]D[Phe(3-CF3)]AAFV[S8]FWQ-NH2 (staple 1-4, 4-11, Stapled peptide composition; also called Ac-PL3-Asp-Ala-B5-Asp-3F3MeF-Ala-Ala-Phe-Val-S8-Phe-Trp-Gln-NH2) [I-244]	log10 of EC50	0.47

Query :: Item Ac-[αAllylPro]DA[B5(4)]D[Bta]AAFV[S8]FWQ-NH2 (staple 1-4, 4-11, Stapled peptide composition; also called Ac-PL3-Asp-Ala-B5-Asp-BztA-Ala-Ala-Phe-Val-S8-Phe-Trp-Gln-NH2) [I-231] has what recorded log10 of EC50?
Result :: 0.81

Query :: Same again, this time with Ac-FDA[R8]DDAAFV[PyrS″][Phe(F5)]WQ-NH2 (staple 4-11, Stapled peptide composition; also called Ac-Phe-Asp-Ala-R8-Asp-Asp-Ala-Ala-Phe-Val-PyrS-Pff-Trp-Gln-NH2) [I-227]
Result :: 0.77

Query :: Same again, this time with Ac-FDA[R8]DDAAFV[PyrS][Phe(F5)]WQ-NH2 (staple 4-11, Stapled peptide composition; also called Ac-Phe-Asp-Ala-R8-Asp-Asp-Ala-Ala-Phe-Val-PyrS-Pff-Trp-Gln-NH2) [I-228]
Result :: 0.77

Query :: Same again, this time with Ac-[αAllylPro]DA[B5(4)]D[2Nal]AAFV[S8]FWQ-NH2 (staple 1-4, 4-11, Stapled peptide composition; also called Ac-PL3-Asp-Ala-B5-Asp-2NapA-Ala-Ala-Phe-Val-S8-Phe-Trp-Gln-NH2) [I-232]
Result :: 0.88

Query :: Same again, this time with Ac-[αAllylPro]DA[B5(4)][2Pal]EAAFV[S8]FWQ-NH2 (staple 1-4, 4-11; also: separate staple isomer composition, Stapled peptide composition; also called Ac-PL3-Asp-Ala-B5-2pyrA-Glu-Ala-Ala-Phe-Val-S8-Phe-Trp-Gln-NH2) [I-230]
Result :: 0.66

Query :: Same again, this time with Ac-FDA[R8]DDAAFV[PyrS″][Phe(F5)]WQ-NH2 (staple 4-11, Stapled peptide composition; also called Ac-Phe-Asp-Ala-R8-Asp-Asp-Ala-Ala-Phe-Val-PyrS-Pff-Trp-Gln-NH2) [I-226]
Result :: 0.88

Query :: Same again, this time with Ac-FDA[R8]DDAAFV[PyrS][Phe(F5)]WQ-NH2 (staple 4-11, Stapled peptide composition; also called Ac-Phe-Asp-Ala-R8-Asp-Asp-Ala-Ala-Phe-Val-PyrS-Pff-Trp-Gln-NH2) [I-225]
Result :: 0.88

Query :: Same again, this time with Ac-FDA[R8]DDAAFT[PyrS″]FWQ-NH2 (staple 4-11, Stapled peptide composition; also called Ac-Phe-Asp-Ala-R8-Asp-Asp-Ala-Ala-Phe-Thr-PyrS-Phe-Trp-Gln-NH2) [I-222]
Result :: 0.82
